Assay: Single-dose subcutaneous injection pharmacokinetic study in SD rats
Assay type: in vivo
Reported Conditions: Sprague-Dawley, rat, blood, sc, male SD rats, 30 mg/kg, vehicle 80% MCT + 20% benzyl alcohol, read-out: AUC0-696h
Measured Attribute: AUC(0-t) (ng·h/mL)
Express the result in ng·h/mL but write the number alone.

Smiles	Unit Tag	AUC(0-t)
Cc1cc(-n2nc3c(c2-n2ccn(-c4ccc5c(cnn5C5CC5)c4F)c2=O)[C@H](C)N(C(=O)c2cc4cc([C@H]5CCOC(C)(C)C5)ccc4n2[C@@]2(c4noc(=O)[nH]4)C[C@@H]2C)CC3)cc(C)c1F	ng·h/mL	60300

With those in mind, consider the next compound.
Return reported AUC(0-t); argument: Cc1cc(-n2nc3c(c2-n2ccn(-c4ccc5c(cnn5CC5CC5)c4F)c2=O)[C@H](C)N(C(=O)c2cc4cc([C@@H]5CCOC(C)(C)C5)ccc4n2[C@@]2(c4noc(=O)[nH]4)C[C@@H]2C)CC3)cc(C)c1F
51200
